Tested on: MOLM14 cells
Assay: Proliferation assay, spheroid-like growth, MOLM14 (MLL-AF9 rearranged)
Assay type: cell-based, human
Details: Homo sapiens, MOLM-14, 192 h, 8 days, confluence as measure of spheroid size, read-out: spheroid assay_OneTime MOLM14 IC50
Procedure: The anti-proliferative effect of menin/MLL protein/protein interaction inhibitor test compounds was assessed in human leukemia cell lines. […] In order to assess the anti-proliferative effects, 200 MOLM14 cells, or 300 KO-52 cells were seeded in 200 μl media per well in 96-well round bottom, ultra-low attachment plates (Costar, catalogue number 7007). […] Spheroid like growth was measured in real-time by live-cell imaging (IncuCyteZOOM, Essenbio, 4× objective) acquiring images at day 8. […]
measured metric: IC50 (nM)

Record excerpt, results attached:
{"compound": "CC(C)[C@H]([C@H]1C[C@@H](NC2CS(=O)(=O)C2)C1)N1CC2(CCN(c3ncnnc3Oc3ccc(F)cc3-c3cncnc3C3CC3)C2)C1 (single isomer, unassigned)", "IC50 / nM": 3}
{"compound": "CC(C)[C@@H]([C@H]1C[C@@H](N2CC[C@@H](F)C2)C1)N1CC2(CCN(c3ncnnc3Oc3ccc(F)cc3-c3nnccc3C3CC3)C2)C1 (single isomer, unassigned)", "IC50 / nM": 5}
{"compound": "COC1(C)CCN([C@H]2C[C@H]([C@H](C(C)C)N3CC4(CCN(c5ncnnc5Oc5ccc(F)cc5-c5nnccc5C5CC5)C4)C3)C2)C1 (mixture of isomers)", "IC50 / nM": 82}

P: CC(C)[C@H]([C@H]1C[C@@H](N2C[C@@H](O)C3(CCC3)C2)C1)N1CC2(CCN(c3ncnnc3Oc3ccc(F)cc3-c3cncnc3C3CC3)C2)C1 (single isomer, unassigned)
Q: CC(C)[C@@H]([C@H]1C[C@@H](N2CC[C@@H](C(=O)N(C)C)C2)C1)N1CC2(CCN(c3ncnnc3Oc3ccc(F)cc3-c3cnncc3C3CC3)C2)C1 (single isomer, unassigned)
Task: Hi, I'm comparing two records. Which one has the lower IC50, P or Q ? Refer to your chosen entry by its label in the reply.
Output: P
